B1: SH2 domain-containing protein 1A, O60880 (parent)
chain: MDAVAVYHGKISRETGEKLLLATGLDGSYLLRDSESVPGVYCLCVLYHGYIYTYRVSQTETGSWSAETAPGVHKRYFRKIKNLISAFQKPDQGIVIPLQYPVEKKSSARSTQGTTGIREDPDVCLKAP

Variants of: B1
Condition: Homo sapiens; pH 7.4; Thermal; CD; Phosphate buffer saline; structure 1KA6; whole UniProt chain shown
Overview of recorded Tm for various variants
Assay metric: Tm (°C)

>>> endpoint_value("Y54C")
48.2
>>> endpoint_value("L31P")
45.6
>>> endpoint_value("E67D")
44.2
>>> endpoint_value("G93D")
49.1
>>> endpoint_value("F87S")
50.5
